Test system: purified bovine brain CaM
Assay: GST-fusion protein pull-down with purified bovine brain CaM
Format: binding
Settings: 50 pmol GST-fusion protein, 50 pmol purified bovine CaM, 100 mM Tris-HCl pH 7.5; Ca2+ dependent (0.1 mM CaCl2 vs 1 mM EGTA); repeated five times
Where no end group is shown, it is not given here.
endpoint-label: interaction with purified CaM (pull-down, in words)

[[record]]
substance = "ATctC (325–359): GST-C-terminus of carboxyl tail, GST-KSHSSLSTKMSTLSYRPSDNMSSSAKKPASCFEVE ({GST}-KSHSSLSTKMSTLSYRPSDNMSSSAKKPASCFEVE)"
recorded_value = "no interactions with CaM"

[[record]]
substance = "ATi3C (235–242): GST-C-terminus of the i3 loop, amino acids 235–242, peptide NDDIFRIT"
recorded_value = "no interactions with CaM"


Cited source for all entries: paper PMC3673938
